This section presents IC50 values reported for Serine/threonine-protein kinase B-raf (Homo sapiens, UniProt P15056) in the literature.
MEASURED QUANTITY: IC50

[
  {
    "SMILES STR": "COc1ncc(-c2cnc3[nH]cc(C(=O)c4c(F)ccc(NS(=O)(=O)C(C)C)c4F)c3c2)cn1",
    "TARGET OF ASSAY": "Serine/threonine-protein kinase B-raf (Homo sapiens, UniProt P15056)",
    "RECORDED MEASUREMENT": "≤ 10 µM"
  },
  {
    "SMILES STR": "CCCS(=O)(=O)Nc1ccc(F)c(C(=O)c2c[nH]c3ncc(-c4cc(C)nn4C)cc23)c1F",
    "TARGET OF ASSAY": "Serine/threonine-protein kinase B-raf (Homo sapiens, UniProt P15056)",
    "RECORDED MEASUREMENT": "≤ 10 µM"
  },
  {
    "SMILES STR": "CC(C)(C)c1nc(-c2cc(Cl)cc(NS(=O)(=O)c3cc(F)ccc3F)c2F)c(-c2ccnc(N)n2)s1",
    "TARGET OF ASSAY": "Serine/threonine-protein kinase B-raf (Homo sapiens, UniProt P15056)",
    "RECORDED MEASUREMENT": "< 0.01 µM"
  },
  {
    "SMILES STR": "COCCOc1cc2ncnc(Oc3ccc(NC(=O)Nc4cccc(OC)c4)cc3)c2c2c1OCCO2",
    "TARGET OF ASSAY": "Serine/threonine-protein kinase B-raf (Homo sapiens, UniProt P15056)",
    "RECORDED MEASUREMENT": "> 1 µM"
  },
  {
    "SMILES STR": "Cn1cc(-c2cnc3[nH]cc(C(=O)c4c(F)ccc(NS(=O)(=O)c5cccc(OC(F)F)c5)c4Cl)c3c2)cn1",
    "TARGET OF ASSAY": "Serine/threonine-protein kinase B-raf (Homo sapiens, UniProt P15056)",
    "RECORDED MEASUREMENT": "≤ 10 µM"
  },
  {
    "SMILES STR": "O=C(Nc1cc(F)cc(C(F)(F)F)c1)Nc1ccc(Oc2ccnc(NC(=O)C3CC3)c2)cc1F",
    "TARGET OF ASSAY": "Serine/threonine-protein kinase B-raf (Homo sapiens, UniProt P15056)",
    "RECORDED MEASUREMENT": "0.037 µM"
  }
]
